Values from paper PMC9482650

Molecular target: LAP2, Q96RT1
Sequence (Q96RT1 other isoform, or with tags, fused parts or gaps): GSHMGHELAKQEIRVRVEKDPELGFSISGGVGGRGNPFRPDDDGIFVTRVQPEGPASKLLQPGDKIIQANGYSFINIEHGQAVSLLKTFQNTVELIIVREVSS
Assay: holdup assay
Set-up: key: below the threshold = too weak to quantify, mostly under pKd 3.1 to 4
Details: plain residues with an end cap or a label only (N-terminal biotin on a linker: ttds)
Where pKd equals or exceeds 4, the correct label is Criterion met; where it does not, the label is Criterion not met.

Example results:
                       binder     discrete_label
0  RSLEEEESQL [GRASP, Q7Z6J2]  Criterion not met
1  GQDSREETQL [KCNT2, Q6UVM3]  Criterion not met
2   ERKLSSESQV [LRP4, O75096]  Criterion not met
3  STLTIFETAL [ABCC4, O15439]      Criterion met

# input for lookup
Exercise: Test whether the binder SVWLRKETRV [CYSLTR2, Q9NS75] records pKd of 4 or higher.
Key: Criterion met
